# test-details: Acute toxicity (LD50) in rats
# condition: rat, in vivo, iv; i.v. (rats)
measure-name: LD50

Can you share its LD50? I mean this compound: Cc1c(C)c2c(c(C)c1OP(=O)(O)OC1=C(O)[C@@H]([C@@H](O)CO)OC1=O)CCC(C)(CCCC(C)CCCC(C)CCCC(C)C)O2 (mixture of isomers)
≥ 100 mg/kg
